assay: blood-stage malaria parasite viability loss – strain 3D7, DAPI fluorescence, 100 nL, primary screen (AID 1184);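 also: parasites grown inside human red blood cells in medium with human serum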; conditions: P. falciparum 3D7 growth, 3 d, higher = more signal
Recorded z-score for the following compounds
Give only the figure.

Record excerpt, results attached:
INSERT INTO measurements (compound, reported_metric, readout_value) VALUES
  ('CN(C)C(=O)[C@]1(Cc2ccccc2)N=C(c2ccc(OCCCO)cc2)O[C@@H]1c1ccccc1CN=[N+]=[N-]', 'z-score', -2.6),
  ('Cc1ccc(S[C@]2(C(=O)NCCCN(C)C)CC(=O)N(Cc3ccccc3C(F)(F)F)[C@@H]2c2ccc(CO)cc2I)cc1', 'z-score', 0.306);

-- ask Entry C=CCC(OC(C)=O)[C@@H]1[C@@H](N(Cc2cccc3ccccc23)C(=O)c2ccc(-c3ccccc3)cc2)c2cc(OCCCO)ccc2N1C(=O)Cc1ccc2ccccc2c1 (some centres undefined) : reported z-score = ?
-- reply 0.0788

-- ask Entry C[C@@H]1NC(=O)C([C@@H](C)OCc2ccccc2)NC(=O)[C@@]23C(=O)N[C@@H](Cc4ccccc4)C2[C@H](C)[C@@]2(C)O[C@H]2C3/C=C/C/C=C\CNC1=O (some centres undefined) : reported z-score = ?
-- reply 0.0074

-- ask Entry COc1ccc([Si](C)(C)[C@H]2[C@H](CC(=O)N3CCC[C@H]3CO)O[C@@]3(C(=O)N(Cc4ccc(N5CCCCC5=O)cc4)c4ccccc43)[C@@H]2C)cc1 : reported z-score = ?
-- reply -1.64

-- ask Entry CCCCCCc1nc(-c2ccc(-c3ccc(Cl)c(Cl)c3)o2)cc2c1[Si](C(C)C)(C(C)C)OC2 : reported z-score = ?
-- reply -2.22

-- ask Entry C[C@]1(C(=O)O)c2ccccc2C(=O)N(Cc2cc(F)cc(C(F)(F)F)c2)[C@H]1c1ccc(CO)cc1 : reported z-score = ?
-- reply 0.832

-- ask Entry [N-]=[N+]=NCc1ccccc1[C@@H]1OC(c2ccc(OCCCO)cc2)=N[C@]1(Cc1ccccc1N=[N+]=[N-])C(=O)O : reported z-score = ?
-- reply -1.9

-- ask Entry C=C(/C(=C/C[C@@H](OC(C)=O)c1cccc(OCCO)c1)c1cnc2ccccc2c1)C(C)C : reported z-score = ?
-- reply -2.95

* * *

target: Fibroblast growth factor 2 (Homo sapiens); assay: basic fibroblast growth factor binding to printed compounds – biochemical, small-molecule microarray, 635/667 nm fluorescence, primary screen (AID 1133); conditions: FGF2, fluorescence 635/667, higher = more signal
reported metric: composite z-score

INSERT INTO assay_data (molecule, reported_metric, readout_value) VALUES
  ('C=CC[C@@]1(C(=O)OC)N=C(c2ccc(OCCCO)cc2)O[C@@H]1c1ccccc1N=[N+]=[N-]', 'composite z-score', 1.66);

-- ask Entry CC=CC(O)C1C=CC2C(=O)NC(=O)C2N1Nc1ccc(Cl)cc1Cl (centres undefined) : reported composite z-score = ?
-- reply -0.0658

-- ask Entry O=C1C2C=CC(C(O)c3cccs3)N(Nc3ccc([N+](=O)[O-])cc3)C2C(=O)N1c1ccccc1 (centres undefined) : reported composite z-score = ?
-- reply -0.105

-- ask Entry COC(=O)[C@@]1(Cc2ccc(F)cc2)[C@H]2c3cc(C(=O)N4CCCC4)n(CCc4ccccn4)c3C[C@H]2CN1C(=O)c1ccccc1 : reported composite z-score = ?
-- reply -0.418

-- ask Entry COC(=O)C(CC#Cc1ccc2c(c1)[C@]1(C(=O)N2)[C@H](C(=O)NC[C@H](O)c2ccccc2)[C@H]2C(=O)O[C@H](c3ccccc3)[C@H](c3ccccc3)N2[C@@H]1c1ccccc1OCCO)C(=O)OC : reported composite z-score = ?
-- reply 1.56

-- ask Entry COc1ccc([Si](C)(C)[C@@H]2[C@@H](CC(=O)N3Cc4ccccc4C[C@H]3CO)O[C@]3(C(=O)N(Cc4cccc(N5CCOC5=O)c4)c4ccccc43)[C@H]2C)cc1 : reported composite z-score = ?
-- reply 1.4

-- ask Entry CCCC[C@H]1OB(O)C[C@H]2C1=C(COc1ccccc1)C[C@H]1C(=O)C=CC(=O)[C@H]12 : reported composite z-score = ?
-- reply 0.696

-- ask Entry CN(C)CCCNC(=O)[C@@H]1c2ccccc2C(=O)N(Cc2ccccc2C(F)(F)F)[C@H]1c1ccc(CO)cc1 : reported composite z-score = ?
-- reply -0.361

* * *

assay: growth of efflux-deficient E. coli DRC39 – strain DRC39, OD650, 48 h, E. coli filamentation inducers, primary screen (AID 1179);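 also: screen aims at cell division blockers that make cells filament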; conditions: E. coli DRC39 delta-acrAB growth, higher = more signal, called active from +8 up or from −8 down
Recorded z-score for the following compounds
Give only the figure.

Record excerpt, results attached:
INSERT INTO results (compound, readout_value) VALUES
  ('COCCOC(=O)N1C(=O)[C@@]2(c3cc(C#CCC(C(=O)OC)C(=O)OC)ccc31)[C@H](c1ccc(O)cc1)N1[C@H](c3ccccc3)[C@H](c3ccccc3)OC(=O)[C@H]1[C@@H]2C(=O)Nc1nc2ccccc2s1', -0.961),
  ('COC(=O)[C@@]1(Cc2ccc(F)cc2)[C@H]2c3cc(C(=O)N4CCCC4)n(Cc4cc(F)cc5c4OCOC5)c3C[C@H]2CN1C(=O)c1ccccc1', -1.11),
  ('COc1ccccc1CN1C(=O)c2ccccc2[C@](Cc2ccccc2I)(C(=O)NCC(C)C)[C@@H]1c1ccc(CO)cc1', 1.29),
  ('CCCNC(=O)[C@@]1(Sc2ccc(C)cc2)CC(=O)N(Cc2ccccc2Cl)[C@@H]1c1ccc(CO)cc1I', 1.01),
  ('COc1ccc(C(O)C2C=CC3C(=O)N(c4ccccc4)C(=O)C3N2Nc2ccc(C#N)cc2)cc1OCc1ccccc1 (centres undefined)', -0.0725),
  ('O=C1O[C@@H](c2ccccc2)[C@@H](c2ccccc2)N2[C@@H](c3ccccc3OCCO)[C@]3(C(=O)Nc4ccc(C#CCCO)cc43)[C@@H](C(=O)NC[C@H](O)c3ccccc3)[C@H]12', 0.367),
  ('CC(C)N1C(=O)C[C@@](C(=O)NCCN2CCOCC2)(c2ccc([N+](=O)[O-])cc2)[C@H]1c1ccc(CO)cc1', 0.445),
  ('CCCCC(O)C1C=CC2C(=O)N(c3ccccc3)C(=O)C2N1Nc1ccc(C#N)cc1 (centres undefined)', -0.465);

-- ask Entry CC(C)NC(=O)[C@@]1(c2ccc([N+](=O)[O-])cc2)CC(=O)N(CC23CC4CC(CC(C4)C2)C3)[C@@H]1c1ccc(CO)cc1 : reported z-score = ?
-- reply -0.655

-- ask Entry O=C1[C@H]2C=C(I)[C@H](C[C@@H]2c2ccccc2)[C@@]12CO2 : reported z-score = ?
-- reply -1.24

-- ask Entry CO[C@H]1O[C@H](CO)[C@@H](OC(=O)Nc2ccccc2-c2ccccc2)[C@H](OC(=O)Nc2ccccc2)[C@H]1OC(=O)Nc1ccccc1 : reported z-score = ?
-- reply 0.172

* * *

system: wheat germ agglutinin (Triticum aestivum), Alexa647-labelled; experiment: Alexa647-WGA lectin binding to printed small molecules – biochemical, small-molecule microarray, 635/667 nm fluorescence, artefact control for SMM control-protein annotation, profiling panel (AID 1140); details: WGA-A647 binding, 635 nm fluorescence, higher = more signal;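 also: score merges 667 nm feature emission with signal to noise over triplicate slides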
Recorded composite z-score for the following compounds
Give only the figure.

Record excerpt, results attached:
INSERT INTO results (compound, readout_value) VALUES
  ('O=C1N(CCS(=O)(=O)c2ccccc2)c2ccccc2C[C@]12N=C(c1ccc(OCCCO)cc1)O[C@@H]2c1ccccc1', 0.392),
  ('COCCOC(=O)N1C(=O)[C@@]2(c3cc(C#CCNC(N)=O)ccc31)[C@H](C(=O)Nc1nc3ccccc3s1)[C@H]1C(=O)O[C@H](c3ccccc3)[C@H](c3ccccc3)N1[C@@H]2c1ccccc1OCCO', 0.489),
  ('CN(C)CCCNC(=O)[C@@]1(Cc2ccccc2I)c2ccccc2C(=O)N(C2CCCCC2)[C@H]1c1ccc(CO)cc1', 1.2),
  ('Cc1ccc(C(C)CC(O)C2C=CC3C(=O)N(C)C(=O)C3N2Nc2ccccc2)o1 (stereo not given)', 1.15),
  ('O=C1C2C=CC(C(O)c3c(F)cccc3Cl)N(Nc3ccc([N+](=O)[O-])cc3)C2C(=O)N1c1ccccc1 (stereo not given)', 0.844);

-- ask Could you share what composite z-score was measured for CN(C)CCCNC(=O)[C@@H]1c2ccccc2C(=O)N(Cc2ccccc2C(F)(F)F)[C@H]1c1ccc(CO)cc1 , tested on wheat germ agglutinin (Triticum aestivum), Alexa647-labelled?
-- reply 0.1

-- ask Could you share what composite z-score was measured for COc1ccc(C(O)C2C=CC3C(=O)NC(=O)C3N2Nc2ccc(Cl)cc2Cl)c2ccccc12 (stereo not given) , tested on wheat germ agglutinin (Triticum aestivum), Alexa647-labelled?
-- reply 1.19

-- ask Could you share what composite z-score was measured for COC(=O)C(CC#Cc1ccc2c(c1)[C@]1(C(=O)N2)[C@H](C(=O)NC[C@H](O)c2ccccc2)[C@H]2C(=O)O[C@H](c3ccccc3)[C@H](c3ccccc3)N2[C@@H]1c1ccccc1OCCO)C(=O)OC , tested on wheat germ agglutinin (Triticum aestivum), Alexa647-labelled?
-- reply 1.09

-- ask Could you share what composite z-score was measured for CN(C)CCCC[C@@H]1NC(=O)[C@@H]2C[C@H](C(=O)NCCCCCN)[C@H](c3cccc(OCCO)c3)N2C1=O , tested on wheat germ agglutinin (Triticum aestivum), Alexa647-labelled?
-- reply 0.632

-- ask Could you share what composite z-score was measured for Cc1ccc(S[C@]2(C(=O)NC(C)C)CC(=O)N(C3CCCCC3)[C@@H]2c2ccc(CO)cc2I)cc1 , tested on wheat germ agglutinin (Triticum aestivum), Alexa647-labelled?
-- reply 0.0189

-- ask Could you share what composite z-score was measured for CC(C)=CCCC(C)=CC(O)C1C=CC2C(=O)NC(=O)C2N1Nc1ccccn1 (stereo not given) , tested on wheat germ agglutinin (Triticum aestivum), Alexa647-labelled?
-- reply 0.73

-- ask Could you share what composite z-score was measured for O=C1O[C@H](Cc2ccccc2)[C@@H]2[C@H]3C=CCCC=C3CN2[C@H]1Cc1ccc(O)cc1 , tested on wheat germ agglutinin (Triticum aestivum), Alexa647-labelled?
-- reply 0.778

-- ask Could you share what composite z-score was measured for O=C1OCCC=C[C@H]2OC34C=CCN(c5ccc6ccccc6c5)C(=O)[C@H]3N(CCO)C(=O)[C@@H]4C12 (stereo not given in full) , tested on wheat germ agglutinin (Triticum aestivum), Alexa647-labelled?
-- reply -0.117

-- ask Could you share what composite z-score was measured for [N-]=[N+]=NCc1ccccc1[C@@H]1OC(c2ccc(OCCCO)cc2)=N[C@]1(Cc1ccccc1N=[N+]=[N-])C(=O)O , tested on wheat germ agglutinin (Triticum aestivum), Alexa647-labelled?
-- reply 1.21

-- ask Could you share what composite z-score was measured for C[N+](C)(C)CCCC[C@@H]1NC(=O)[C@H]2C[C@@H](C(=O)NCCCCCNC(=O)CS)[C@@H](c3cccc(OCCO)c3)N2C1=O , tested on wheat germ agglutinin (Triticum aestivum), Alexa647-labelled?
-- reply 0.343
